- study-target: T1, CH2-4 constant domains of human IgE linked to a transmembrane protein, on 293 cells (human, UniProt P01854-1 104-428)
- T1 construct: domain: CH2-4 constant domains; also called human IgE-expressing 293 cells
- T1 sequence (P01854 other isoform, or with tags, fused parts or gaps): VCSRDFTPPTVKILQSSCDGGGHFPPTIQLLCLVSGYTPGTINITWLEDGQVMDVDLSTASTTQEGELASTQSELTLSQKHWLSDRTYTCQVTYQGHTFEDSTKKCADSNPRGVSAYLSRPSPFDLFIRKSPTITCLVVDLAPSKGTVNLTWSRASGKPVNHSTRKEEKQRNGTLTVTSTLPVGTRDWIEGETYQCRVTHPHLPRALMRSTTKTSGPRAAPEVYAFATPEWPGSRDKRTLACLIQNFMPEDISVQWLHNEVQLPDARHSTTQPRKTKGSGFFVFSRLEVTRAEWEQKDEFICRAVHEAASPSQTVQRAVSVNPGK
- method-notes: flow cytometry, 293 cells expressing human IgE CH2-4
Measured Kd accompanies every entry in the list below.

{"columns": ["binder", "Kd / nM"],
 "data": [
  ["B10-NNT (Fc fusion, monomeric; also called parental B10 monomeric VHH-hIgG1-Fc fusion (Fc NNT)) VHH-Fc: EVQLVQSGGELVQAGGSLRLSCVASGLTFSSYNMGWLRQAPGKEREFVGMSGSSSTSTYYADSVKGRFTISRDNSKNTVYLQMNSLKPEDTAVYYCAARRMLSTYWSDRSWDFWGQGTQVTVKPGGPSVFLFPPKPKDTLMISRTPEVTCVVVDVSHEDPEVKFNWYVDGVEVHNAKTKPREEQYNSTYRVVSVLTVLHQDWLNGKEYKCKVSNKALPAPIEKTISKAKGQPREPQVYTLPPSRDELTKNQVNLTCLVKGFYPSDIAVEWESNGQPENNYKTTPPVLDSDGSFFLNSTLTVDKSRWQQGNVFSCSVMHEALHNHYTQKSLSLSPGK", 0.872],
  ["hzB10v38-NNT (Fc fusion, monomeric) VHH-Fc: EVQLLESGGGEVQPGGSLRLSCVASGLTFSSYNMGWLRQAPGKEREFVGLSGSSSTSTYYAESVKGRFTISRDNSKNTVYLQMTSLRPEDTAVYYCAARRLLSTYWSDRSWDFWGQGTLVTVEPGGPSVFLFPPKPKDTLMISRTPEVTCVVVDVSHEDPEVKFNWYVDGVEVHNAKTKPREEQYNSTYRVVSVLTVLHQDWLNGKEYKCKVSNKALPAPIEKTISKAKGQPREPQVYTLPPSRDELTKNQVNLTCLVKGFYPSDIAVEWESNGQPENNYKTTPPVLDSDGSFFLNSTLTVDKSRWQQGNVFSCSVMHEALHNHYTQKSLSLSPGK", 0.98],
  ["hzB10v39-NNT (Fc fusion, monomeric) VHH-Fc: EVQLLESGGGEVQPGGSLRLSCVASGLTFSSYNMGWLRQAPGKEREFVGLSGSSSTSTYYAESVKGRFTISRDNSKNTVYLQMTSLRAEDTAVYYCAARRLLSTYWSDRSWDFWGQGTLVTVEPGGPSVFLFPPKPKDTLMISRTPEVTCVVVDVSHEDPEVKFNWYVDGVEVHNAKTKPREEQYNSTYRVVSVLTVLHQDWLNGKEYKCKVSNKALPAPIEKTISKAKGQPREPQVYTLPPSRDELTKNQVNLTCLVKGFYPSDIAVEWESNGQPENNYKTTPPVLDSDGSFFLNSTLTVDKSRWQQGNVFSCSVMHEALHNHYTQKSLSLSPGK", 1.37],
  ["hzB10v37-NNT (Fc fusion, monomeric) VHH-Fc: EVQLLESGGGEVQPGGSLRLSCVASGLTFSSYNMGWLRQAPGKEREFVGLSGSSSTSTYYAESVKGRFTISRDNSKNTVYLQMTSLKAEDTAVYYCAARRLLSTYWSDRSWDFWGQGTLVTVEPGGPSVFLFPPKPKDTLMISRTPEVTCVVVDVSHEDPEVKFNWYVDGVEVHNAKTKPREEQYNSTYRVVSVLTVLHQDWLNGKEYKCKVSNKALPAPIEKTISKAKGQPREPQVYTLPPSRDELTKNQVNLTCLVKGFYPSDIAVEWESNGQPENNYKTTPPVLDSDGSFFLNSTLTVDKSRWQQGNVFSCSVMHEALHNHYTQKSLSLSPGK", 1.51],
  ["hzB10v30-NNT (Fc fusion, monomeric) VHH-Fc: EVQLLESGGGEVQPGGSLRLSCVASGLTFSSYNMGWLRQAPGKEREFVGLSGSSSTSTYYAESVKGRFTISRDNSKNTVYLQMTSLRAEDTAVYYCAARRLLSTYWSDRSWDFWGQGTQVTVEPGGPSVFLFPPKPKDTLMISRTPEVTCVVVDVSHEDPEVKFNWYVDGVEVHNAKTKPREEQYNSTYRVVSVLTVLHQDWLNGKEYKCKVSNKALPAPIEKTISKAKGQPREPQVYTLPPSRDELTKNQVNLTCLVKGFYPSDIAVEWESNGQPENNYKTTPPVLDSDGSFFLNSTLTVDKSRWQQGNVFSCSVMHEALHNHYTQKSLSLSPGK", 1.69]
]}
